Target: mPGES-1 (Homo sapiens)
Construct: made in house; host or cells: E. coli
Sequence (O14684 1-152): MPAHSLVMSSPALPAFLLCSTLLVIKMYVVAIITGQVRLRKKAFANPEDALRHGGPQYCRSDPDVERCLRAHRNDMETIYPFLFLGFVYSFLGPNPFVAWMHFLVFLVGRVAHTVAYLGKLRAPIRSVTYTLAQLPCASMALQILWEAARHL
Experiment: mPGES-1 assay: conversion of PGH2 to PGE2, PGE2 analysed by HPLC
Format: biochemical
Settings: mPGES-1 expressed in E. coli; 25 min preincubation with inhibitor, 60 s with PGH2, room temperature; read-out: IC50
I'd appreciate it if you could supply pIC50 values for the items below.
Scale note: pIC50 = -log10(concentration in M).

Recorded pIC50 of `Cc1ccc2oc(-c3cc(NC(=O)c4ccccc4F)ccc3Cl)nc2c1` , please.
5.59

`Cc1ccc2oc(-c3cc(NC(=O)c4ccccc4OC(F)(F)F)ccc3Cl)nc2c1` , same question.
5.64

`Cc1ccc2oc(-c3cccc(NC(=O)c4ccccc4[N+](=O)[O-])c3)nc2c1` , same question.
5.72

Reference for the values: patent US20090258917A1
